Tested on: MCF12A
Assay: area over the GR curve, 72 h; higher = more effect
assay_metric: area over the GR curve (GR)
Entry rule: numbers only, all in GR.

Return reported area over the GR curve; argument: COc1cccc2c1C(=O)c1c(O)c3c(c(O)c1C2=O)C[C@@](O)(C(=O)CO)C[C@@H]3O[C@H]1C[C@H](N)[C@H](O)[C@H](C)O1 [Doxorubicin] (max 3.162 µM)
0.601

Return reported area over the GR curve; argument: CN(C)C/C=C/C(=O)Nc1ccc(O[C@@H]2CCC[C@@H](Nc3ncc(Cl)c(-c4c[nH]c5ccccc45)n3)C2)cc1 [BSJ-01-175] (max 10 µM)
0.146

Return reported area over the GR curve; argument: CCc1cnn2c(NCc3ccc[n+]([O-])c3)cc(N3CCCC[C@H]3CCO)nc12 (max 1 µM)
0.424

Return reported area over the GR curve; argument: O=C1NC(=NCc2cccs2)SC1=Cc1ccc2ncccc2c1 [R0-3306] (max 10 µM)
0.041

Return reported area over the GR curve; argument: CNc1nc(-c2ccc3c(N)n[nH]c3c2)cc(N2C[C@@H](C(=O)NC3CCCCC3)CC[C@H]2C)n1 (max 10 µM)
0.0618

Return reported area over the GR curve; argument: C=CCn1c(=O)c2cnc(Nc3ccc(N4CCN(C)CC4)cc3)nc2n1-c1cccc(C(C)(C)O)n1 [AZD1775] (max 10 µM)
0.255

Return reported area over the GR curve; argument: CC(C)NC[C@@H](C(=O)N1CCN(c2ncnc3c2[C@H](C)C[C@H]3O)CC1)c1ccc(Cl)cc1 [Ipatasertib/GDC0068] (max 10 µM)
0.0679

Return reported area over the GR curve; argument: CC1(N)CCN(c2cnc(-c3cccc(Cl)c3Cl)c(N)n2)CC1 [SHP099] (max 10 µM)
0.0144

Return reported area over the GR curve; argument: CN(C)C/C=C/C(=O)Nc1ccc(C(=O)Nc2cccc(Nc3ncc(Cl)c(-c4c[nH]c5ccccc45)n3)c2)cc1 [THZ1] (max 1 µM)
0.256

Return reported area over the GR curve; argument: C=CC(=O)Nc1ccc(C(=O)Nc2[nH]nc3c2CN(C(=O)N[C@H](CN(C)C)c2ccccc2)C3(C)C)cc1 [YKL-5-124] (max 10 µM)
0.803

Return reported area over the GR curve; argument: CC(=O)c1c(C)c2cnc(Nc3ccc(N4CCN(CCOCCOCCOCCNC(=O)COc5cccc6c5C(=O)N(C5CCC(=O)NC5=O)C6=O)CC4)cn3)nc2n(C2CCCC2)c1=O (stereo unspecified) [BSJ-03-123] (max 10 µM)
0.136

Return reported area over the GR curve; argument: CO[C@H]1C[C@@H]2CC[C@@H](C)[C@@](O)(O2)C(=O)C(=O)N2CCCC[C@H]2C(=O)O[C@H]([C@H](C)C[C@@H]2CC[C@@H](OCCO)[C@H](OC)C2)CC(=O)[C@H](C)/C=C(\C)[C@@H](O)[C@@H](OC)C(=O)[C@H](C)C[C@H](C)/C=C/C=C/C=C/1C [Everolimus] (max 10 µM)
0.273

Return reported area over the GR curve; argument: CNCc1ccc(-c2[nH]c3cc(F)cc4c3c2CCNC4=O)cc1 [Rucaparib] (max 10 µM)
0.0783

Return reported area over the GR curve; argument: CC(C)n1nc(-c2ccc3oc(N)nc3c2)c2c(N)ncnc21 [INK128/MLN0128] (max 3.162 µM)
0.495

Return reported area over the GR curve; argument: CN(C)CC[C@H](CSc1ccccc1)Nc1ccc(S(=O)(=O)NC(=O)c2ccc(N3CCN(Cc4ccccc4-c4ccc(Cl)cc4)CC3)cc2)cc1[N+](=O)[O-] [ABT-737] (max 10 µM)
0.0052

Return reported area over the GR curve; argument: CN1CC[C@H](c2c(O)cc(O)c3c(=O)cc(-c4ccccc4Cl)oc23)[C@H](O)C1 [Flavopiridol] (max 1 µM)
0.167

###

Task for the reader: assign each of the following compounds its reported GRmax, 72 h.
Test system: UACC812
Assay: GRmax, 72 h; higher = less effect
Entry rule: numbers only, all in GR.

Return reported GRmax, 72 h; argument: C=CC(=O)Nc1ccc(C(=O)Nc2[nH]nc3c2CN(C(=O)N[C@H](CN(C)C)c2ccccc2)C3(C)C)cc1 [YKL-5-124] (max 10 µM)
-0.403

Return reported GRmax, 72 h; argument: CCNC(=O)c1noc(-c2cc(C(C)C)c(O)cc2O)c1-c1ccc(CN2CCOCC2)cc1 [Luminespib/NVP-AUY922] (max 1 µM)
-0.521

Return reported GRmax, 72 h; argument: Cc1cc(Nc2ncc(Cl)c(Nc3ccccc3S(=O)(=O)C(C)C)n2)c(OC(C)C)cc1C1CCNCC1 [Ceritinib/LDK378] (max 10 µM)
-0.983

Return reported GRmax, 72 h; argument: CN1CCN(C(=O)c2ccc3cc(CCNc4ncnc5ccc(C#N)cc45)ccc3c2)CC1 [senexin b] (max 10 µM)
0.248

Return reported GRmax, 72 h; argument: Cc1nc(-c2cn3c(n2)-c2ccc(-c4cnn(C(C)(C)C(N)=O)c4)cc2OCC3)n(C(C)C)n1 [Taselisib/GDC0032] (max 10 µM)
-0.636

###

System: CAMA1
Assay: GRmax, 72 h; higher = less effect;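 further: breast cell lines in 384-well plates, nine doses across a 10^4 range, Dye Drop imaging of viable cells vs DMSO and time-zero plates, GR 0 means no net growth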
Criterion: GRmax, 72 h meeting or surpassing 0.4 GR. Met: true. Not met: false.

Please tell me: is the compound CCOc1cc2ncc(C#N)c(Nc3ccc(OCc4ccccn4)c(Cl)c3)c2cc1NC(=O)/C=C/CN(C)C [Neratinib/HKI272] (max 3.162 µM) at or over 0.4 GR in terms of GRmax, 72 h?
true

Please tell me: is the compound Cc1nn(C)c(COc2ccc(N3CCN(S(=O)(=O)N(C)C)CC3)cc2)c1-c1cccc2c(CCCOc3cccc4ccccc34)c(C(=O)O)n(CCN3CCOCC3)c12 (max 10 µM) at or over 0.4 GR in terms of GRmax, 72 h?
true

Please tell me: is the compound CC(C)Nc1cc(-c2c[nH]c(C(=O)N[C@H](CO)c3cccc(Cl)c3)c2)c(Cl)cn1 [BVD523] (max 10 µM) at or over 0.4 GR in terms of GRmax, 72 h?
false

Please tell me: is the compound Cc1nc(-c2cn3c(n2)-c2ccc(-c4cnn(C(C)(C)C(N)=O)c4)cc2OCC3)n(C(C)C)n1 [Taselisib/GDC0032] (max 10 µM) at or over 0.4 GR in terms of GRmax, 72 h?
false

Please tell me: is the compound Cc1cc(Nc2ncc(Cl)c(Nc3ccccc3S(=O)(=O)C(C)C)n2)c(OC(C)C)cc1C1CCNCC1 [Ceritinib/LDK378] (max 10 µM) at or over 0.4 GR in terms of GRmax, 72 h?
false

Please tell me: is the compound C=CC(=O)Nc1ccc(C(=O)Nc2[nH]nc3c2CN(C(=O)N[C@H](CN(C)C)c2ccccc2)C3(C)C)cc1 [YKL-5-124] (max 10 µM) at or over 0.4 GR in terms of GRmax, 72 h?
false

###

Task for the reader: assign each of the following molecules its reported area over the GR curve.
Tested on: CAL851
Experiment: area over the GR curve, 72 h; higher = more effect;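 further: Dye Drop or Deep Dye Drop imaging of viable cells in 384-well plates (Hoechst nuclei, LIVE/DEAD dye), nine half-log doses, GR normalized to DMSO controls and time-zero plates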
Entry rule: numbers only, all in GR.

Return reported area over the GR curve; argument: Cc1nc(-c2cn3c(n2)-c2ccc(-c4cnn(C(C)(C)C(N)=O)c4)cc2OCC3)n(C(C)C)n1 [Taselisib/GDC0032] (max 10 µM)
0.55

Return reported area over the GR curve; argument: COc1cc([C@@H]2c3cc4c(cc3[C@@H](O[C@@H]3O[C@@H]5CO[C@@H](C)O[C@H]5[C@H](O)[C@H]3O)[C@H]3COC(=O)[C@H]23)OCO4)cc(OC)c1O [Etoposide] (max 10 µM)
0.406

Return reported area over the GR curve; argument: CNc1nc(-c2ccc3c(N)n[nH]c3c2)cc(N2C[C@@H](C(=O)NC3CCCCC3)CC[C@H]2C)n1 (max 10 µM)
0.201

Return reported area over the GR curve; argument: CCN1CCN(Cc2ccc(Nc3ncc(F)c(-c4cc(F)c5nc(C)n(C(C)C)c5c4)n3)nc2)CC1 (max 10 µM)
0.228

Return reported area over the GR curve; argument: CC(=O)Nc1cccc(-n2c(=O)n(C3CC3)c(=O)c3c(Nc4ccc(I)cc4F)n(C)c(=O)c(C)c32)c1 (max 1 µM)
0.41

Return reported area over the GR curve; argument: O=C(CCCCCCC(=O)Nc1ccccc1)NO [Vorinostat] (max 10 µM)
0.201

Return reported area over the GR curve; argument: CC(=O)c1c(C)c2cnc(Nc3ccc(N4CCNCC4)cn3)nc2n(C2CCCC2)c1=O (max 3.162 µM)
-0.0843

Return reported area over the GR curve; argument: CCCCOc1c(C(=O)c2c(F)cc(C)cc2F)c[nH]c2nncc1-2 (max 10 µM)
0.672

Return reported area over the GR curve; argument: CC(C)NC[C@@H](C(=O)N1CCN(c2ncnc3c2[C@H](C)C[C@H]3O)CC1)c1ccc(Cl)cc1 [Ipatasertib/GDC0068] (max 10 µM)
0.166

Return reported area over the GR curve; argument: C=CCn1c(=O)c2cnc(Nc3ccc(N4CCN(C)CC4)cc3)nc2n1-c1cccc(C(C)(C)O)n1 [AZD1775] (max 10 µM)
0.491

Return reported area over the GR curve; argument: Cc1cc(C(C)Nc2ccccc2)c2nc(N3CCOCC3)cc(=O)n2c1 (stereo not drawn) [TGX221] (max 10 µM)
-0.0591

Return reported area over the GR curve; argument: O=C1NC(=NCc2cccs2)SC1=Cc1ccc2ncccc2c1 [R0-3306] (max 10 µM)
0.159

Return reported area over the GR curve; argument: CN(C)C/C=C/C(=O)Nc1ccc(C(=O)Nc2cccc(Nc3cc(-c4c[nH]c5ccccc45)ncn3)c2)cc1 [THZ-P1-2] (max 10 µM)
0.217

Return reported area over the GR curve; argument: COc1cc(N2CCN(C)CC2)ccc1Nc1ncc2c(n1)N(C)c1ccccc1C(=O)N2CC(F)(F)F [FMF-03-146-1]
0.0805

Return reported area over the GR curve; argument: Cc1cc(Nc2ncc(Cl)c(Nc3ccccc3S(=O)(=O)C(C)C)n2)c(OC(C)C)cc1C1CCNCC1 [Ceritinib/LDK378] (max 10 µM)
0.372

Return reported area over the GR curve; argument: CN1CC[C@H](c2c(O)cc(O)c3c(=O)cc(-c4ccccc4Cl)oc23)[C@H](O)C1 [Flavopiridol] (max 1 µM)
0.3

Return reported area over the GR curve; argument: CN1CCN(C(=O)c2ccc3cc(CCNc4ncnc5ccc(C#N)cc45)ccc3c2)CC1 [senexin b] (max 10 µM)
0.226

Return reported area over the GR curve; argument: CCC(=O)Nc1ccc(C(=O)Nc2ccc(Nc3ncc4c(n3)N(C)c3ccc(C)cc3C(=O)N4C)cc2)cc1 [FMF-03-145-1]
0.626
